Test system: HARA
Experiment: relative viability (nuclei count vs DMSO), 5 days (fraction); higher = more cells survive
Conditions: first compound 8 µM
Please provide measured relative viability for the entries that follow.
Answers are plain numbers.

Worked examples follow.
The compound identified as CCCCCCCCCCCC1=C(O)C(=O)C=C(O)C1=O [Embelin] + N=C(N)NC(=N)NCCc1ccccc1 [Phenformin] (partner 250 µM) registered its relative viability at 0.455

The compound identified as CCCCCCCCCCCC1=C(O)C(=O)C=C(O)C1=O [Embelin] + CC1(C)CCC(c2ccc(Cl)cc2)=C(CN2CCN(c3ccc(C(=O)NS(=O)(=O)c4ccc(N[C@H](CCN5CCOCC5)CSc5ccccc5)c(S(=O)(=O)C(F)(F)F)c4)cc3)CC2)C1 [Navitoclax] (partner 0.5 µM) registered its relative viability at 1.13

The compound identified as CCCCCCCCCCCC1=C(O)C(=O)C=C(O)C1=O [Embelin] + CS(=O)(=O)N1CCN(Cc2cc3nc(-c4cccc5[nH]ncc45)nc(N4CCOCC4)c3s2)CC1 [Pictilisib] (partner 1 µM) registered its relative viability at 0.653

The compound identified as CCCCCCCCCCCC1=C(O)C(=O)C=C(O)C1=O [Embelin] + C[C@]1(O)C[C@@H](c2nc(-c3ccc4ccc(-c5ccccc5)nc4c3)c3c(N)nccn32)C1 [Linsitinib] (partner 1 µM) registered its relative viability at 1.16

Record relative viability per entry; entries follow.
1. CCCCCCCCCCCC1=C(O)C(=O)C=C(O)C1=O [Embelin] + Nc1nc2[nH]cc(CCc3ccc(C(=O)N[C@@H](CCC(=O)O)C(=O)O)cc3)c2c(=O)[nH]1 [Pemetrexed] (partner 0.2 µM)
2. CCCCCCCCCCCC1=C(O)C(=O)C=C(O)C1=O [Embelin] + CC(=O)Nc1cccc(-n2c(=O)n(C3CC3)c(=O)c3c(Nc4ccc(I)cc4F)n(C)c(=O)c(C)c32)c1 [Trametinib] (partner 0.02 µM)
3. CCCCCCCCCCCC1=C(O)C(=O)C=C(O)C1=O [Embelin] + CCNC(=O)c1noc(-c2cc(C(C)C)c(O)cc2O)c1-c1ccc(CN2CCOCC2)cc1 [Luminespib] (partner 0.01 µM)

A)
[0.208, 0.536, 0.821]

====

Test system: NCI-H2126
Experiment: relative viability (nuclei count vs DMSO), 5 days (fraction); higher = more cells survive
Details: first compound 0.04 µM
measured_parameter: relative viability
One number for each entry.

The compound identified as C[C@@H]1CN(CC(=O)Nc2ccc3c(c2)Cc2cccc(-c4cc(=O)cc(N5CCOCC5)o4)c2S3)C[C@H](C)O1 + CC(C)C[C@H](NC(=O)[C@H](Cc1ccccc1)NC(=O)c1cnccn1)B(O)O [Bortezomib] (partner 0.002 µM) registered its relative viability at 1.13

The compound identified as Clc1ccc(Nc2nnc(Cc3ccncc3)c3ccccc23)cc1 [Vatalanib] + C[C@]1(O)C[C@@H](c2nc(-c3ccc4ccc(-c5ccccc5)nc4c3)c3c(N)nccn32)C1 [Linsitinib] (partner 1 µM) registered its relative viability at 0.669

Record relative viability per entry; entries follow.
1. Clc1ccc(Nc2nnc(Cc3ccncc3)c3ccccc23)cc1 [Vatalanib] + NC(=O)Nc1cc(-c2cccc(F)c2)sc1C(=O)N[C@H]1CCCNC1 [AZD7762] (partner 0.2 µM)
2. C[C@@H]1CN(CC(=O)Nc2ccc3c(c2)Cc2cccc(-c4cc(=O)cc(N5CCOCC5)o4)c2S3)C[C@H](C)O1 + NC(=O)Nc1cc(-c2cccc(F)c2)sc1C(=O)N[C@H]1CCCNC1 [AZD7762] (partner 0.2 µM)
3. C[C@@H]1CN(CC(=O)Nc2ccc3c(c2)Cc2cccc(-c4cc(=O)cc(N5CCOCC5)o4)c2S3)C[C@H](C)O1 + CC(=O)c1c(C)c2cnc(Nc3ccc(N4CCNCC4)cn3)nc2n(C2CCCC2)c1=O [Palbociclib] (partner 0.5 µM)

A)
[0.994, 0.91, 0.384]

Record relative viability per entry; entries follow.
1. C[C@@H]1CN(CC(=O)Nc2ccc3c(c2)Cc2cccc(-c4cc(=O)cc(N5CCOCC5)o4)c2S3)C[C@H](C)O1 + O=C(CCCCCCC(=O)Nc1ccccc1)NO [Vorinostat] (partner 1 µM)
2. Clc1ccc(Nc2nnc(Cc3ccncc3)c3ccccc23)cc1 [Vatalanib] + CC(=O)c1c(C)c2cnc(Nc3ccc(N4CCNCC4)cn3)nc2n(C2CCCC2)c1=O [Palbociclib] (partner 0.5 µM)

A)
0.853
0.314

====

System: COR-L 105
Test: relative viability (nuclei count vs DMSO), 5 days (fraction); higher = more cells survive
Details: first compound 0.4 µM
Please provide measured relative viability for the entries that follow.
Give bare numbers.

The molecule identified as COc1cc(N2CCC(C(N)=O)CC2)ccc1Nc1nc(N)c(Cl)c(Nc2ccccc2S(=O)(=O)C(C)C)n1 [HG-5-88-01] + COc1cc2c(Oc3ccc(NC(=O)C4(C(=O)Nc5ccc(F)cc5)CC4)cc3F)ccnc2cc1OCCCN1CCOCC1 [Foretinib] (partner 0.25 µM) registered its relative viability at 1.16

Turning now to a further record.
The molecule identified as C[C@@H]1CN(CC(=O)Nc2ccc3c(c2)Cc2cccc(-c4cc(=O)cc(N5CCOCC5)o4)c2S3)C[C@H](C)O1 + C[C@]1(O)C[C@@H](c2nc(-c3ccc4ccc(-c5ccccc5)nc4c3)c3c(N)nccn32)C1 [Linsitinib] (partner 1 µM) registered its relative viability at 0.746

====

System: BEN
Test: relative viability (nuclei count vs DMSO), 5 days (fraction); higher = more cells survive
Settings: first compound 2.53 µM
measured_parameter: relative viability
Numbers only.

Record relative viability per entry; entries follow.
1. CCCCCCCCCCCC1=C(O)C(=O)C=C(O)C1=O [Embelin] + N=C(N)NC(=N)NCCc1ccccc1 [Phenformin] (partner 250 µM)
2. CCCCCCCCCCCC1=C(O)C(=O)C=C(O)C1=O [Embelin] + C[C@@H](Oc1cc(-c2cnn(C3CCNCC3)c2)cnc1N)c1c(Cl)ccc(F)c1Cl [Crizotinib] (partner 1 µM)
3. CCCCCCCCCCCC1=C(O)C(=O)C=C(O)C1=O [Embelin] + CS(=O)(=O)N1CCN(Cc2cc3nc(-c4cccc5[nH]ncc45)nc(N4CCOCC4)c3s2)CC1 [Pictilisib] (partner 1 µM)

A)
1: 0.264; 2: 1.17; 3: 0.743

====

Test system: H3255
Test: relative viability (nuclei count vs DMSO), 5 days (fraction); higher = more cells survive
Settings: first compound 0.1265 µM
measured_parameter: relative viability
Answers are plain numbers.

Fill in: H3255 relative viability for Clc1ccc(Nc2nnc(Cc3ccncc3)c3ccccc23)cc1 [Vatalanib] + Nc1ncn([C@H]2C[C@H](O)[C@@H](CO)O2)c(=O)n1 [Decitabine] (partner 2 µM) = 0.616

Fill in: H3255 relative viability for Clc1ccc(Nc2nnc(Cc3ccncc3)c3ccccc23)cc1 [Vatalanib] + Cc1nc(Nc2ncc(C(=O)Nc3c(C)cccc3Cl)s2)cc(N2CCN(CCO)CC2)n1 [Dasatinib] (partner 0.075 µM) = 0.385

Turning now to a further record.
Fill in: H3255 relative viability for C[C@@H]1CN(CC(=O)Nc2ccc3c(c2)Cc2cccc(-c4cc(=O)cc(N5CCOCC5)o4)c2S3)C[C@H](C)O1 + Cc1nc(NC(=O)N2CCC[C@H]2C(N)=O)sc1-c1ccnc(C(C)(C)C(F)(F)F)c1 [Alpelisib] (partner 2 µM) = 0.659

====

Tested on: NCI-H1944
Experiment: relative viability (nuclei count vs DMSO), 5 days (fraction); higher = more cells survive
Details: first compound 0.1265 µM
Response field label takes satisfied when relative viability is strictly below 0.8 and not satisfied in all other cases.

Q) Criterion: relative viability strictly below 0.8. Is it met by COc1cc(N2CCC(C(N)=O)CC2)ccc1Nc1nc(N)c(Cl)c(Nc2ccccc2S(=O)(=O)C(C)C)n1 [HG-5-88-01] + Nc1ncn([C@H]2C[C@H](O)[C@@H](CO)O2)c(=O)n1 [Decitabine] (partner 2 µM) ?
A) satisfied

Q) Criterion: relative viability strictly below 0.8. Is it met by Clc1ccc(Nc2nnc(Cc3ccncc3)c3ccccc23)cc1 [Vatalanib] + Cc1cc(Nc2cc(N3CCN(C)CC3)nc(Sc3ccc(NC(=O)C4CC4)cc3)n2)n[nH]1 [Tozasertib] (partner 0.1 µM) ?
A) satisfied

Q) Criterion: relative viability strictly below 0.8. Is it met by C[C@@H]1CN(CC(=O)Nc2ccc3c(c2)Cc2cccc(-c4cc(=O)cc(N5CCOCC5)o4)c2S3)C[C@H](C)O1 + Cc1nc(Nc2ncc(C(=O)Nc3c(C)cccc3Cl)s2)cc(N2CCN(CCO)CC2)n1 [Dasatinib] (partner 0.075 µM) ?
A) satisfied

Q) Criterion: relative viability strictly below 0.8. Is it met by C[C@@H]1CN(CC(=O)Nc2ccc3c(c2)Cc2cccc(-c4cc(=O)cc(N5CCOCC5)o4)c2S3)C[C@H](C)O1 + C[C@]1(O)C[C@@H](c2nc(-c3ccc4ccc(-c5ccccc5)nc4c3)c3c(N)nccn32)C1 [Linsitinib] (partner 1 µM) ?
A) not satisfied

Q) Criterion: relative viability strictly below 0.8. Is it met by COc1cc(N2CCC(C(N)=O)CC2)ccc1Nc1nc(N)c(Cl)c(Nc2ccccc2S(=O)(=O)C(C)C)n1 [HG-5-88-01] + CS(=O)(=O)CCNCc1ccc(-c2ccc3ncnc(Nc4ccc(OCc5cccc(F)c5)c(Cl)c4)c3c2)o1 [Lapatinib] (partner 2 µM) ?
A) not satisfied

Q) Criterion: relative viability strictly below 0.8. Is it met by C[C@@H]1CN(CC(=O)Nc2ccc3c(c2)Cc2cccc(-c4cc(=O)cc(N5CCOCC5)o4)c2S3)C[C@H](C)O1 + COc1cccc2cc(-c3nc([C@H]4CC[C@H](C(=O)O)CC4)n4ncnc(N)c34)[nH]c12 [OSI-027] (partner 0.5 µM) ?
A) satisfied

Q) Criterion: relative viability strictly below 0.8. Is it met by C[C@@H]1CN(CC(=O)Nc2ccc3c(c2)Cc2cccc(-c4cc(=O)cc(N5CCOCC5)o4)c2S3)C[C@H](C)O1 + Cc1nc(NC(=O)N2CCC[C@H]2C(N)=O)sc1-c1ccnc(C(C)(C)C(F)(F)F)c1 [Alpelisib] (partner 2 µM) ?
A) not satisfied

Then there is this molecule:
Q) Criterion: relative viability strictly below 0.8. Is it met by C[C@@H]1CN(CC(=O)Nc2ccc3c(c2)Cc2cccc(-c4cc(=O)cc(N5CCOCC5)o4)c2S3)C[C@H](C)O1 + CC(=O)Nc1cccc(-n2c(=O)n(C3CC3)c(=O)c3c(Nc4ccc(I)cc4F)n(C)c(=O)c(C)c32)c1 [Trametinib] (partner 0.02 µM) ?
A) satisfied
